The binders listed here are annotated with their % Signal Inhibition Rep1.
- TARGET OR SYSTEM: T1, canine OX40L, full length membrane form, expressed on HEK293 cells (canine)
- T1 chain: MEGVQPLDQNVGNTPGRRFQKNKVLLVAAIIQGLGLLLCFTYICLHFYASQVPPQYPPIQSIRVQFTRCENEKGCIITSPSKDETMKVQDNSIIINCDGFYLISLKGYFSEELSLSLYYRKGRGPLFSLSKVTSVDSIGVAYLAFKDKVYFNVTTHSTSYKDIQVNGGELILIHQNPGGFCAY
- ASSAY COMMENT: cell-based or functional assay
// units = %; emit number, no label

>>> result("PMX059 (antibody, V domains shown, also called PMX59) VH: EVHLVESGGDLVKPEGSLRLSCVVSGFTFSNYVMNWVRQAPGKGLQWVAFISGDGRSTTYTDAVKSRFTISRDNAKNTLYLQMSSLRTEDTAIYFCAKEKYSSGWSFEYWGQGTLVTVSS VL: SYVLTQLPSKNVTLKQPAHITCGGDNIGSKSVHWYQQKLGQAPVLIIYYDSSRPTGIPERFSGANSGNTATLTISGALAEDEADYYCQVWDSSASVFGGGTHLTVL")
51.1

Per the record, PMX087 (antibody, V domains shown) VH: EVHLVESGGDLVKPGGSLRLSCVASGFTFSNYHMSWVRQAPGKGLQWVAFINSGGSGTSYADAVKGRFTISRDYAKSTLYLQMNSLRAEDTAVYYCASGYIWTHFDYWGQGTLVTVSS VL: SYVLTQLPSVSVTLRQTARITCGGDIIGSKNVYWYQQKLGQAPILIIYRDSNRPTGIPERFSGASSGNTATLTISGALAEDEADYYCQVWDSSTSVFGGGTHLTVL has % Signal Inhibition Rep1 of 29.8

Per the record, PMX032 (antibody, V domains shown, also called PMX32) VH: EVQLVESGGDLVKPGGSLRLSCVASGFTFSSYHMSWVRQAPGKGLQWVAYITSGGRTTSYADAVKGRFIISRDNAKNTLYLQMNSLRAEDTAVYYCASDLVLILGGADYWGQGTLVTVSS VL: SYELTQPPSVNVTLRETAHITCGGDSIGRKYVQWIQQNPGQAPVVIIYKDNNRPTGIPERFSGANSGNTATLTISGALAEDEADYYCQVGDSGSKAVFGGGTHLTVL has % Signal Inhibition Rep1 of 76.8
